- Test system: 598228-144-R-J1-PDC complex spheroids, viability
- assay procedure: Anticancer human tumor 598228-144-R-J1-PDC patient-derived serous endometrial adenocarcinoma cell line growth inhibition [CLK]; active means viability on the fitted dose curve at most 10% of control; inactive means the rest
- measurement parameters: second compound 1 µM; first compound 3.16 µM
Write down one outcome, taken from active, inactive

| compound | answer label |
| --- | --- |
| COC1C=CCC(C)C(C)S(=O)(=O)NC(=O)c2ccc3c(c2)N(CC2CCC21)CC1(CCCc2cc(Cl)ccc21)CO3 (stereo unspecified) + CN1CCN(c2cc(C(=O)Nc3cc4cc(-c5cnn(C)c5)ccc4cn3)ccn2)CC1 | active |

Assay outcome for CC(=O)O[C@H]1C(=O)[C@@]2(C)[C@H]([C@H](OC(=O)c3ccccc3)[C@]3(O)C[C@H](OC(=O)[C@H](O)[C@@H](NC(=O)c4ccccc4)c4ccccc4)C(C)=C1C3(C)C)[C@]1(OC(C)=O)CO[C@@H]1C[C@@H]2O + CNC(=O)c1ccc(Nc2nc(OC3CCCC3)c3c(-c4ccc5nc(C)oc5c4)c[nH]c3n2)c(OC)c1 : what was it?
inactive

Name the outcome recorded for CC(=O)O[C@H]1C(=O)[C@@]2(C)[C@H]([C@H](OC(=O)c3ccccc3)[C@]3(O)C[C@H](OC(=O)[C@H](O)[C@@H](NC(=O)c4ccccc4)c4ccccc4)C(C)=C1C3(C)C)[C@]1(OC(C)=O)CO[C@@H]1C[C@@H]2O + CN1CCN(c2cc(C(=O)Nc3cc4cc(-c5cnn(C)c5)ccc4cn3)ccn2)CC1 in the assay.
active

Short answer needed: outcome of this test for C=C(F)C(=O)N1CCN(c2nc(OCC3CCCN3C)nc3c2CCN(c2cccc4cccc(Cl)c24)C3)CC1CC#N (stereo unspecified) + CN1CCN(c2cc(C(=O)Nc3cc4cc(-c5cnn(C)c5)ccc4cn3)ccn2)CC1 ?
active

Recorded test call requested for CCCS(=O)(=O)Nc1ccc(F)c(C(=O)c2c[nH]c3ncc(-c4ccc(Cl)cc4)cc23)c1F + CNC(=O)c1ccc(Nc2nc(OC3CCCC3)c3c(-c4ccc5nc(C)oc5c4)c[nH]c3n2)c(OC)c1
inactive

Lab log entry: C=CC(=O)N1CCN(c2nc(=O)n(-c3c(C)ccnc3C(C)C)c3nc(-c4c(O)cccc4F)c(F)cc23)C(C)C1 (stereo unspecified) + CNC(=O)c1ccc(Nc2nc(OC3CCCC3)c3c(-c4ccc5nc(C)oc5c4)c[nH]c3n2)c(OC)c1 — outcome as called in the assay?
inactive

Given CC1(C)CCC(CN2CCN(c3ccc(C(=O)NS(=O)(=O)c4ccc(NCC5CCOCC5)c([N+](=O)[O-])c4)c(Oc4cnc5[nH]ccc5c4)c3)CC2)=C(c2ccc(Cl)cc2)C1 + CN1CCN(c2cc(C(=O)Nc3cc4cc(-c5cnn(C)c5)ccc4cn3)ccn2)CC1 , state the outcome it received in this test.
active

Name the outcome recorded for CC(Nc1ccc2c(c1)OCCn1cc(N3C(=O)OCC3C(F)F)nc1-2)C(N)=O (stereo unspecified) + CN1CCN(c2cc(C(=O)Nc3cc4cc(-c5cnn(C)c5)ccc4cn3)ccn2)CC1 in the assay.
active

Field: outcome | Entry: CCCS(=O)(=O)Nc1ccc(F)c(C(=O)c2c[nH]c3ncc(-c4ccc(Cl)cc4)cc23)c1F + CN1CCN(c2cc(C(=O)Nc3cc4cc(-c5cnn(C)c5)ccc4cn3)ccn2)CC1
active

Hello, I am checking results. What call was entered for Nc1ccn(C2OC(CO)C(O)C2(F)F)c(=O)n1 (stereo unspecified) + CN1CCN(c2cc(C(=O)Nc3cc4cc(-c5cnn(C)c5)ccc4cn3)ccn2)CC1 ?
active

What outcome does the record of this test show for CC(CO)NC(=O)c1cc(-c2ccc(Cl)cc2)nn(-c2cnn(C)c2)c1=O (stereo unspecified) + CN1CCN(c2cc(C(=O)Nc3cc4cc(-c5cnn(C)c5)ccc4cn3)ccn2)CC1 ?
active

====

- System: 598228-144-R-J1-PDC complex spheroids, viability
- assay procedure: Anticancer human tumor 598228-144-R-J1-PDC cell line growth inhibition [CLK];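 further: spheroids exposed to compounds for seven days before readout; 100% = DMSO vehicle control wells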
- measurement parameters: second compound 3.16 µM; first compound 3.16 µM; stronger effect = lower value
recorded metric: viability, T/C (%)
Kindly answer with a numeric value in %, unit omitted.

Take a look at these entries with their results.
| molecule | system under test | unit label | viability, T/C |
| --- | --- | --- | --- |
| CC(Nc1ccc2c(c1)OCCn1cc(N3C(=O)OCC3C(F)F)nc1-2)C(N)=O (stereo unspecified) + CN1CCN(c2cc(C(=O)Nc3cc4cc(-c5cnn(C)c5)ccc4cn3)ccn2)CC1 | 598228-144-R-J1-PDC complex spheroids, viability | % | 1.66 |
| Nc1ccn(C2OC(CO)C(O)C2(F)F)c(=O)n1 (stereo unspecified) + CNC(=O)c1ccc(Nc2nc(OC3CCCC3)c3c(-c4ccc5nc(C)oc5c4)c[nH]c3n2)c(OC)c1 | 598228-144-R-J1-PDC complex spheroids, viability | % | 34.3 |
| CCCS(=O)(=O)Nc1ccc(F)c(C(=O)c2c[nH]c3ncc(-c4ccc(Cl)cc4)cc23)c1F + CNC(=O)c1ccc(Nc2nc(OC3CCCC3)c3c(-c4ccc5nc(C)oc5c4)c[nH]c3n2)c(OC)c1 | 598228-144-R-J1-PDC complex spheroids, viability | % | 83.3 |
| COC1C=CCC(C)C(C)S(=O)(=O)NC(=O)c2ccc3c(c2)N(CC2CCC21)CC1(CCCc2cc(Cl)ccc21)CO3 (stereo unspecified) + CN1CCN(c2cc(C(=O)Nc3cc4cc(-c5cnn(C)c5)ccc4cn3)ccn2)CC1 | 598228-144-R-J1-PDC complex spheroids, viability | % | 2.51 |
| C#Cc1c(F)ccc2cc(O)cc(-c3ncc4c(N5CC6CCC(C5)N6)nc(OCC56CCCN5CC(F)C6)nc4c3F)c12 (stereo unspecified) + CNC(=O)c1ccc(Nc2nc(OC3CCCC3)c3c(-c4ccc5nc(C)oc5c4)c[nH]c3n2)c(OC)c1 | 598228-144-R-J1-PDC complex spheroids, viability | % | 95.2 |

The value of viability, T/C measured for the molecule O=c1[nH]cc(F)c(=O)[nH]1 + CN1CCN(c2cc(C(=O)Nc3cc4cc(-c5cnn(C)c5)ccc4cn3)ccn2)CC1 turned out to be 1.46

====

- System: 598228-144-R-J1-PDC complex spheroids, viability
- assay procedure: Anticancer human tumor 598228-144-R-J1-PDC cell line growth inhibition [CLK];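 further: spheroids exposed to compounds for seven days before readout; 100% = DMSO vehicle control wells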
- measurement parameters: second compound 0.316 µM; first compound 3.16 µM; stronger effect = lower value
Rule: measured viability, T/C below 80% gets Fulfilled; anything equal to or greater than 80% gets Not fulfilled.

These recorded examples may help you get a feel for the data.
| compound | answer label |
| --- | --- |
| C=CC(=O)N1CCN(c2nc(=O)n(-c3c(C)ccnc3C(C)C)c3nc(-c4c(O)cccc4F)c(F)cc23)C(C)C1 (stereo unspecified) + CNC(=O)c1ccc(Nc2nc(OC3CCCC3)c3c(-c4ccc5nc(C)oc5c4)c[nH]c3n2)c(OC)c1 | Not fulfilled |
| C#Cc1c(F)ccc2cc(O)cc(-c3ncc4c(N5CC6CCC(C5)N6)nc(OCC56CCCN5CC(F)C6)nc4c3F)c12 (stereo unspecified) + CNC(=O)c1ccc(Nc2nc(OC3CCCC3)c3c(-c4ccc5nc(C)oc5c4)c[nH]c3n2)c(OC)c1 | Not fulfilled |
| COc1cccc2c1C(=O)c1c(O)c3c(c(O)c1C2=O)CC(O)(C(=O)CO)CC3OC1CC(N)C(O)C(C)O1 (stereo unspecified) + CN1CCN(c2cc(C(=O)Nc3cc4cc(-c5cnn(C)c5)ccc4cn3)ccn2)CC1 | Fulfilled |
| CCCS(=O)(=O)Nc1ccc(F)c(C(=O)c2c[nH]c3ncc(-c4ccc(Cl)cc4)cc23)c1F + CNC(=O)c1ccc(Nc2nc(OC3CCCC3)c3c(-c4ccc5nc(C)oc5c4)c[nH]c3n2)c(OC)c1 | Not fulfilled |
| CC(Nc1ccc2c(c1)OCCn1cc(N3C(=O)OCC3C(F)F)nc1-2)C(N)=O (stereo unspecified) + CNC(=O)c1ccc(Nc2nc(OC3CCCC3)c3c(-c4ccc5nc(C)oc5c4)c[nH]c3n2)c(OC)c1 | Fulfilled |

Read the next record carefully.
Lab note: confirm whether the reported viability, T/C for this compound is below 80%, equality not counting. compound: Nc1ccccc1NC(=O)c1ccc(CNC(=O)OCc2cccnc2)cc1 + CNC(=O)c1ccc(Nc2nc(OC3CCCC3)c3c(-c4ccc5nc(C)oc5c4)c[nH]c3n2)c(OC)c1
Fulfilled

====

- Tested on: 598228-144-R-J1-PDC complex spheroids, viability
- assay procedure: Anticancer human tumor 598228-144-R-J1-PDC cell line growth inhibition [CLK]; active = viability on the fitted dose curve at most 10% of control; inactive = the rest;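 further: spheroids exposed to compounds for seven days before readout; 100% = DMSO vehicle control wells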
- measurement parameters: second compound 10 µM; first compound 1 µM
Permitted responses: label 1 for active, label 0 for inactive

| compound | system under test | answer label |
| --- | --- | --- |
| COc1ccc([C@@H](O)c2cc(-c3ncnc4cc(N5CCOCC5)ccc34)c(F)cc2Cl)nn1 + CN1CCN(c2cc(C(=O)Nc3cc4cc(-c5cnn(C)c5)ccc4cn3)ccn2)CC1 | 598228-144-R-J1-PDC complex spheroids, viability | label 1 |
| CCCS(=O)(=O)Nc1ccc(F)c(C(=O)c2c[nH]c3ncc(-c4ccc(Cl)cc4)cc23)c1F + CNC(=O)c1ccc(Nc2nc(OC3CCCC3)c3c(-c4ccc5nc(C)oc5c4)c[nH]c3n2)c(OC)c1 | 598228-144-R-J1-PDC complex spheroids, viability | label 0 |
| CC(CO)NC(=O)c1cc(-c2ccc(Cl)cc2)nn(-c2cnn(C)c2)c1=O (configuration not stated) + CNC(=O)c1ccc(Nc2nc(OC3CCCC3)c3c(-c4ccc5nc(C)oc5c4)c[nH]c3n2)c(OC)c1 | 598228-144-R-J1-PDC complex spheroids, viability | label 0 |
| COc1c(OCCCN2CCOCC2)ccc2c3n(c(=NC(=O)c4cnc(N)nc4)nc12)CCN3 + CNC(=O)c1ccc(Nc2nc(OC3CCCC3)c3c(-c4ccc5nc(C)oc5c4)c[nH]c3n2)c(OC)c1 | 598228-144-R-J1-PDC complex spheroids, viability | label 1 |
| O=c1[nH]cc(F)c(=O)[nH]1 + CNC(=O)c1ccc(Nc2nc(OC3CCCC3)c3c(-c4ccc5nc(C)oc5c4)c[nH]c3n2)c(OC)c1 | 598228-144-R-J1-PDC complex spheroids, viability | label 0 |
| CC1COCCN1c1cc(C2(S(C)(=N)=O)CC2)nc(-c2ccnc3[nH]ccc23)n1 (configuration not stated) + CN1CCN(c2cc(C(=O)Nc3cc4cc(-c5cnn(C)c5)ccc4cn3)ccn2)CC1 | 598228-144-R-J1-PDC complex spheroids, viability | label 1 |

Name the outcome recorded for O=C(c1cc(Cc2n[nH]c(=O)c3ccccc23)ccc1F)N1CCN(C(=O)C2CC2)CC1 + CNC(=O)c1ccc(Nc2nc(OC3CCCC3)c3c(-c4ccc5nc(C)oc5c4)c[nH]c3n2)c(OC)c1 in the assay.
label 0
